- studyTarget: haematopoietic prostaglandin D synthase (H-PGDS) (Homo sapiens, UniProt O60760)
- Construct: Full length human H-PGDS cDNA (Invitrogen Ultimate ORF 10H13026) was amplified by PCR; 6-His (N); TEV protease cleavage site (N); made in house; host or cells: E. coli BL21 (DE3*), vector pET22b+
- Sequence (O60760 whole entry): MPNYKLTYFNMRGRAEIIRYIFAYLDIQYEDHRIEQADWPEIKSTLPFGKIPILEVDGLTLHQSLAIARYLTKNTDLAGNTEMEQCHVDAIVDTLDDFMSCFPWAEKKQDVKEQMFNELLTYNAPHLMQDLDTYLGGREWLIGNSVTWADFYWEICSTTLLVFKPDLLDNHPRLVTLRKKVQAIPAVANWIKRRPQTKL
- assayNotes: H-PGDS RapidFire high throughput mass spectrometry assay (conversion of PGH2 to PGD2)
- Assay type: biochemical
- conditionNotes: 10 nM H-PGDS, PGH2 formed in situ by COX-2 from arachidonic acid; read-out: Potency Range (mean pIC50) (converted)
- From the text: H-PGDS RapidFire™ High Throughput Mass Spectrometry Assay The H-PGDS RapidFire™ mass spectrometric assay monitors conversion of prostaglandin H2 (PGH2) to prostaglandin D2 (PGD2) by haematopoietic prostaglandin D synthase (H-PGDS). […] Plates are then read on the RapidFire™ high throughput solid phase extraction system (Agilent) which incorporates a solid phase extraction step coupled to a triple quadrupole mass spectrometer (AB SCIEX). […]
experimentalEndpoint: IC50

Previously resolved entries follow.
> print(dat)
                                   molecule        reported
1  O=C(NC1CN(c2ncc(CO)cn2)C1)N1CC(Oc2cc(F)cc3scnc23)C1 [Example 113]   10 to 79.4 nM
2  CS(=O)(=O)N1CCC(NC(=O)[C@H]2C[C@H](Oc3cccc4cccnc34)C2)CC1 [Example 219]  100 to 1000 nM
3  CC(C)(O)c1cnc(NC(=O)[C@H]2C[C@H](Oc3cccc4cccnc34)C2)s1 [Example 204]   10 to 79.4 nM
4  O=C(NCc1ccsc1)[C@H]1C[C@H](Oc2cccc3scnc23)C1 [Example 252]  100 to 1000 nM

Exam item: Given the molecule COc1ccc(F)cc1O[C@H]1C[C@H](C(=O)NC2CCN(c3cc(C#N)ccn3)C2)C1 (mixture of isomers) [Example 145] , what is its reported IC50?
Marked response: 10 to 79.4 nM

Exam item: Given the molecule CC1(NC(=O)[C@H]2C[C@H](Oc3cc(F)cc4scnc34)C2)CN(c2ncccn2)C1 [Example 238] , what is its reported IC50?
Marked response: 100 to 1000 nM

Exam item: Given the molecule O=C(NC1CN(c2ccc(F)cn2)C1)[C@H]1C[C@H](Oc2cc(F)cc3scnc23)C1 [Example 120] , what is its reported IC50?
Marked response: 10 to 79.4 nM

Exam item: Given the molecule O=C(N[C@H]1CC[C@H](OCC(O)C2CC2)CC1)[C@H]1C[C@H](Oc2cc(F)ccc2OC(F)F)C1 (mixture of isomers) [Example 9] , what is its reported IC50?
Marked response: 10 to 79.4 nM
